# Tested on: MS2 coat protein
# measurement notes: apparent KD of MS2 coat protein; designed switch direction (-1 OFF switch, 1 ON switch): -1; higher = weaker reporter binding
# settings: Eterna round: R95; input ligand: microRNA oligo, concentration not stated
Respond with True for apparent KD of MS2 coat protein values of 300 nM and above, False for values below.

Illustrative cases are given below, each with its answer.
residues	discrete label
AAAAGAAGUGUUAGGAUAUGUGGAAGUAGAAAGACACAGAAGGAACAUGAGGAUCACCCAUGUGGCCUAAGAAC [Bibire] (puzzle: Brourd's mod of Exclusion 4)	False
UCAAGUAUGUAGGAUAUGAUGUGAUUCUACAUAUCAGAAGGACGUACAUGAGGAUCACCCAUGUAACUUGCAUG [Exclusion 6 - B - 12:d] (puzzle: Exclusion 6)	False
AAGUACCGUCACGAUAGUGAUGGUACAACAAGCAUGUAAACAUGAGGAUCACCCAUGUCCUCGAAUGCUCGUCUUAU [Sensor 3 - 66] (puzzle: Sensor v3, turn-off variant 2)	True
UAUUAUCAAGUAAGAUCCUACAUGAGGAUCACCCAUGUGCUCGUCUUAUAAGGUACUGUGACGAAAGUCACGGUACC [Sensor 3, v1 - 74] (puzzle: Sensor v3, turn-off variant 1)	True

Please examine the following record next.
In: Answer whether apparent KD of MS2 coat protein of GUGUACGUAGGAUAUACAUGAGGAUCACCCAUGUGAAUAAGAUAGAAUAAGAUAAAGUGUAGAAGGACGAGUGU [Excluse me!!! 6 - Jieux - Exclusion 3] (puzzle: Exclusion 3) is greater than or equal to 300 nM.
Out: False
